# Tested on: SNB-75 CNS
# assay_details: NCI-60 one-dose screen, 48 h
# conditions_used: 10 µM unless noted
Compounds without any hit were thinned out: in the full panel of roughly 83,000, 20% have a hit. Active and inactive are the calls of the source. Rule for the calls: active = growth percent below 10; inactive = the rest.
Pick from label 1 for active, label 0 for inactive when you respond.

GET /call?item= `CC[C@@H]1NC(=O)[C@@H]2CCCCN2C(=O)[C@@H]2CCCN2C(=O)[C@@H](NC(=O)[C@H](Cc2cc(F)cc(F)c2)NC(=O)Nc2ccc(C3CC3)cc2F)[C@H](C)OC(=O)[C@@H]2C[C@@H](C)CN2C1=O` returns the recorded outcome of this test.
label 0

GET /call?item= `CC1(C)C(=O)/C(=C\c2ccco2)C[C@]2(C)[C@H]3CC=C4[C@@H]5C[C@](C)(C(=O)O)CC[C@]5(C)CC[C@@]4(C)[C@]3(C)CC[C@@H]12` returns the recorded outcome of this test.
label 1

GET /call?item= `Cc1c(Cn2cc(COc3ccc(Br)cc3)nn2)c(C)c(Cn2cc(COc3ccc(Br)cc3)nn2)c(C)c1Cn1cc(COc2ccc(Br)cc2)nn1` returns the recorded outcome of this test.
label 0

GET /call?item= `C=C(C)[C@@H]1CC[C@]2(C(=O)NCCNCCNC(=O)OC(C)(C)C)CC[C@]3(C)[C@H](CC[C@@H]4[C@@]5(C)CCC(=O)C(C)(C)[C@@H]5CC[C@]43C)[C@@H]12` returns the recorded outcome of this test.
label 0

GET /call?item= `Cc1cc(N2CCCCCC2)nc(N2CCN(CC(=O)Nc3ccc4c(ccn4Cc4ccccc4)c3)CC2)n1` returns the recorded outcome of this test.
label 0

GET /call?item= `C#CCC(C(=O)OCC)C(=O)OCC` returns the recorded outcome of this test.
label 0

GET /call?item= `Cc1ccc(S(=O)(=O)Oc2ccc([N+](=O)[O-])cc2[N+](=O)[O-])cc1` returns the recorded outcome of this test.
label 0
